# reported PL; entries follow
# Species: Rattus norvegicus
# method-notes: Open TG-GATES - Regimen: Daily Repeat
# Assay type: toxicity, organism-based, Sprague-Dawley
# Parameters: regimen Daily Repeat, gender Male, age 6 weeks
# run-conditions: in vivo, po, 0 mg/kg, […], tissue Plasma, route gavage, dose level Control, time 14 day

Use these answered entries as a reference point.
>>> val("CN(C)CCC=C1c2ccccc2CCc2ccccc21")
"157 mg/dL"
>>> val("CO[C@H]1/C=C/O[C@@]2(C)Oc3c(C)c(O)c4c(O)c(c(/C=N/N5CCN(C)CC5)c(O)c4c3C2=O)NC(=O)/C(C)=C\\C=C\\[C@H](C)[C@H](O)[C@@H](C)[C@@H](O)[C@@H](C)[C@H](OC(C)=O)[C@@H]1C")
"154.2 mg/dL"
>>> val("NC(=O)N1c2ccccc2C=Cc2ccccc21 [CARBAMAZEPINE]")
"151.4 mg/dL"
>>> val("CSc1ccc2c(c1)N(CCC1CCCCN1C)c1ccccc1S2 (stereo not given)")
"163.6 mg/dL"
>>> val("O=C(O)c1cn(C2CC2)c2cc(N3CCNCC3)c(F)cc2c1=O")
"172.8 mg/dL"
>>> val("C[C@H](CS)C(=O)N1CCC[C@H]1C(=O)O")
"169.6 mg/dL"

Prompt: Record request: PL value, item CC(=O)Oc1ccccc1C(=O)O
Completion: 151.2 mg/dL

Prompt: Please give the result for CCCC(CCC)C(=O)O too.
Completion: 166 mg/dL

Prompt: Please give the result for NC(=O)N/N=C/c1ccc([N+](=O)[O-])o1 too.
Completion: 159.8 mg/dL

Prompt: Please give the result for O=C(O)c1cc(/N=N/c2ccc(S(=O)(=O)Nc3ccccn3)cc2)ccc1O too.
Completion: 155 mg/dL

Prompt: Please give the result for Cn1c(=O)c2[nH]cnc2n(C)c1=O.O too.
Completion: 149.2 mg/dL

Prompt: Please give the result for COc1ccc2c(c1)c(CC(=O)O)c(C)n2C(=O)c1ccc(Cl)cc1 too.
Completion: 147.6 mg/dL

Prompt: Please give the result for Clc1ccccc1CN1CCc2sccc2C1 too.
Completion: 138 mg/dL

Prompt: Please give the result for CCc1cc(C(N)=S)ccn1 [ETHIONAMIDE] too.
Completion: 146.2 mg/dL

Prompt: Please give the result for COc1ccc(Cc2nccc3cc(OC)c(OC)cc23)cc1OC too.
Completion: 148.4 mg/dL

Data credit: ChEMBL document CHEMBL3885861
